# assay.method.text: Cmax in nude BALB/c mouse serum at 8.0 mg/kg incubated up to 9 hrs, po administered via gavage by LC-MS/MS analysis
# Type: ADME, organism-based
# Set-up: route oral, dose 8 mg/kg, time <=9
value.type: Cmax (ng/mL)
Provide only the numeric value, understood in ng/mL.

The recorded Cmax for entry CCc1c2c(nc3ccc(OCC(=O)N4CCCCC4)cc13)-c1cc3c(c(=O)n1C2)COC(=O)[C@]3(O)CC equals 332

----------
# Test system: NCI-H1975
# assay.method.text: Cytotoxicity against human NCI-H1975 assessed as reduction in cell viability measured after 72 hrs by MTT assay
# Assay type: functional, cell-based
# test.settings: NCI-H1975, 72 h
Entries annotated with measured IC50
Report only the number, with the unit nM understood.

Example molecules with recorded IC50:
CCN(CC)C(=O)COc1ccc2nc3c(cc2c1)Cn1c-3cc2c(c1=O)COC(=O)[C@]2(O)CC
1960
CCc1c2c(nc3ccc(O)cc13)-c1cc3c(c(=O)n1C2)COC(=O)[C@]3(O)CC [7-ETHYL-10-HYDROXYCAMPTOTHECIN]
810
CC[C@@]1(O)C(=O)OCc2c1cc1n(c2=O)Cc2cc3cc(OCC(=O)N4CCCC4)ccc3nc2-1
2810

Then this molecule:
// IC50 value for CCc1c2c(nc3ccc(OCC(=O)N4CCCCC4)cc13)-c1cc3c(c(=O)n1C2)COC(=O)[C@]3(O)CC : 84

----------
# Tested on: LoVo
# assay.method.text: Cytotoxicity against human LoVo assessed as reduction in cell viability measured after 72 hrs by MTT assay
# Format: functional, cell-based
We begin with a simple list: items and their reported IC50.
Just the number in nM, nothing appended.

CC[C@@]1(O)C(=O)OCc2c1cc1n(c2=O)Cc2cc3cc(OCC(=O)N4CCCCC4)ccc3nc2-1
272
CCc1c2c(nc3ccc(O)cc13)-c1cc3c(c(=O)n1C2)COC(=O)[C@]3(O)CC [7-ETHYL-10-HYDROXYCAMPTOTHECIN]
301

Pending compound:
The reported IC50 value, LoVo, for CCN(CC)C(=O)COc1ccc2nc3c(cc2c1)Cn1c-3cc2c(c1=O)COC(=O)[C@]2(O)CC reads 933

----------
# Test system: HCT-116
# assay.method.text: Cytotoxicity against human HCT-116 assessed as reduction in cell viability measured after 72 hrs by MTT assay
# Assay type: functional, cell-based
# test.settings: HCT-116, 72 h
Entries and their IC50 values follow.

CCc1c2c(nc3ccc(O)cc13)-c1cc3c(c(=O)n1C2)COC(=O)[C@]3(O)CC [7-ETHYL-10-HYDROXYCAMPTOTHECIN]
10 nM
CC[C@@]1(O)C(=O)OCc2c1cc1n(c2=O)Cc2cc3cc(OCC(=O)N(C)CCN(C)C)ccc3nc2-1
> 10000 nM
CC[C@@]1(O)C(=O)OCc2c1cc1n(c2=O)Cc2cc3cc(O)ccc3nc2-1 [HYDROXYCAMPTOTHECIN]
21 nM
CC[C@@]1(O)C(=O)OCc2c1cc1n(c2=O)Cc2cc3cc(OCC(=O)N4CCCC4)ccc3nc2-1
81 nM
CC[C@@]1(O)C(=O)OCc2c1cc1n(c2=O)Cc2cc3cc(OCC(=O)N4CCCCC4)ccc3nc2-1
17 nM

Pending compound:
The compound CCN(CC)C(=O)COc1ccc2nc3c(cc2c1)Cn1c-3cc2c(c1=O)COC(=O)[C@]2(O)CC showed IC50 equal to 101 nM
